Value source: patent US9145391B2

Biological target: recombinant human GST-Syk (Homo sapiens (Human), UniProt P43405)
Assay: Homogeneous Time-Resolved Fluorescence (HTRF) assay for the recombinant human Syk enzyme
Conditions: recombinant human GST-Syk 5 pM, ATP 25 μM, read-out: rhSyk IC50
measuredMetric: IC50 (nM)

See these solved cases before continuing.
Entry Cc1cc(Nc2cc(C(F)F)ccn2)nc(-c2ccc(C(C)(O)[C@H]3CC[C@H](C(=O)OC(C)OC(=O)OC4CCCCC4)CC3)nc2)c1 (single isomer, unassigned) [Example 20-10] , tested on recombinant human GST-Syk (Homo sapiens (Human), UniProt P43405), has a reported IC50 of 190

Entry COC(=O)COC(=O)[C@H]1CC[C@H](C(C)(O)c2ccc(-c3cc(C)cc(Nc4cc(C(F)F)ccn4)n3)cn2)CC1 (single isomer, unassigned) , tested on recombinant human GST-Syk (Homo sapiens (Human), UniProt P43405), has a reported IC50 of 4.3

Entry Cc1cc(Nc2cc(C(F)(F)F)ccn2)nc(-c2ccc(N3CC[C@H](NC(=O)c4ccc5cc[nH]c5c4)C3)nc2)c1 , tested on recombinant human GST-Syk (Homo sapiens (Human), UniProt P43405), has a reported IC50 of 17

Entry Cc1cc(Nc2cc(C(F)(F)F)ccn2)nc(-c2ccc(NC3CCN(C(=O)c4cccc(C(N)=O)c4)CC3)nc2)c1 , tested on recombinant human GST-Syk (Homo sapiens (Human), UniProt P43405), has a reported IC50 of 3

Entry Cc1cc(Nc2cc(C(F)(F)F)ccn2)nc(-c2ccc(NC3CCN(C(=O)c4cccc5cccnc45)CC3)nc2)c1 , tested on recombinant human GST-Syk (Homo sapiens (Human), UniProt P43405), has a reported IC50 of 7

[A] Cc1cc(Nc2cc(C(F)(F)F)ccn2)nc(-c2ccc(NC3CCN(C(=O)Cc4ccc(Oc5ccccc5)cc4)CC3)nc2)c1
[B] Cc1cc(Nc2cc(C(F)(F)F)ccn2)nc(-c2ccc(NC3CCN(C(=O)Cc4ccc5ccn(C)c5c4)CC3)nc2)c1
Asked: Compare A and B by numeric IC50 and name the larger one. Reply briefly: the label of your chosen item.
Given back: A

[1] CCCCOC(=O)[C@H]1CC[C@H](C(C)(O)c2ccc(-c3cc(C)cc(Nc4cc(C(F)F)ccn4)n3)cn2)CC1 (single isomer, unassigned)
[2] Cc1cc(Nc2cc(C(F)(F)F)ccn2)nc(-c2ccc(N3CCOCC3)nc2)c1
Asked: Smaller IC50 value? Options are 1 and 2 Reply briefly: the label of your chosen item.
Given back: 2
(2: 14 nM, 1: 65 nM)
